testDescription: PAMPA BBB permeability (brain polar lipid coated filter)
Type: in vitro ADME
protocolConditions: PAMPA, pH 7.4, PAMPA BBB; read-out: BBB permeability (diffusion)
readoutKind: Papp at 5 h, 500 μM (×10⁻⁶ cm/s)
Value expressed in ×10⁻⁶ cm/s; do not type the unit.

Q: Dear colleague, I am looking for the recorded Papp at 5 h, 500 μM of the following compound: CC1CC1C(=O)c1ccc(-c2n[nH]c(=O)c3ccccc23)cc1 (stereo not shown) [Row745(2)]
A: 2.1

---

testDescription: PAMPA BBB permeability (brain polar lipid coated filter)
Format: in vitro ADME
protocolConditions: PAMPA, pH 7.4, pH 7.4, donor 500 μM, 5 h, room temperature; read-out: PAMPA BBB Papp
readoutKind: Papp at 5 h, 500 μM (×10⁻⁶ cm/s)
Report as a plain number; the unit ×10⁻⁶ cm/s is understood.

CC1CC1C(=O)c1ccc(-c2n[nH]c(=O)c3ccccc23)cc1 (centres unmarked) :: 2.1

Q: Consider the molecule Cc1cc2cc(C(=O)OCc3ccc(C(=O)N4CCOCC4)c(C)c3)ccc2c(=O)[nH]1 and give its measured Papp at 5 h, 500 μM.
A: 0.325

---

studyTarget: full-length human PARP1 (Homo sapiens, UniProt P09874)
Construct: Briefly, full‐length human PARP1 was produced in E. coli Rosetta2 (DE3); made in house; host or cells: E. coli Rosetta2 (DE3)
Sequence (P09874 whole entry): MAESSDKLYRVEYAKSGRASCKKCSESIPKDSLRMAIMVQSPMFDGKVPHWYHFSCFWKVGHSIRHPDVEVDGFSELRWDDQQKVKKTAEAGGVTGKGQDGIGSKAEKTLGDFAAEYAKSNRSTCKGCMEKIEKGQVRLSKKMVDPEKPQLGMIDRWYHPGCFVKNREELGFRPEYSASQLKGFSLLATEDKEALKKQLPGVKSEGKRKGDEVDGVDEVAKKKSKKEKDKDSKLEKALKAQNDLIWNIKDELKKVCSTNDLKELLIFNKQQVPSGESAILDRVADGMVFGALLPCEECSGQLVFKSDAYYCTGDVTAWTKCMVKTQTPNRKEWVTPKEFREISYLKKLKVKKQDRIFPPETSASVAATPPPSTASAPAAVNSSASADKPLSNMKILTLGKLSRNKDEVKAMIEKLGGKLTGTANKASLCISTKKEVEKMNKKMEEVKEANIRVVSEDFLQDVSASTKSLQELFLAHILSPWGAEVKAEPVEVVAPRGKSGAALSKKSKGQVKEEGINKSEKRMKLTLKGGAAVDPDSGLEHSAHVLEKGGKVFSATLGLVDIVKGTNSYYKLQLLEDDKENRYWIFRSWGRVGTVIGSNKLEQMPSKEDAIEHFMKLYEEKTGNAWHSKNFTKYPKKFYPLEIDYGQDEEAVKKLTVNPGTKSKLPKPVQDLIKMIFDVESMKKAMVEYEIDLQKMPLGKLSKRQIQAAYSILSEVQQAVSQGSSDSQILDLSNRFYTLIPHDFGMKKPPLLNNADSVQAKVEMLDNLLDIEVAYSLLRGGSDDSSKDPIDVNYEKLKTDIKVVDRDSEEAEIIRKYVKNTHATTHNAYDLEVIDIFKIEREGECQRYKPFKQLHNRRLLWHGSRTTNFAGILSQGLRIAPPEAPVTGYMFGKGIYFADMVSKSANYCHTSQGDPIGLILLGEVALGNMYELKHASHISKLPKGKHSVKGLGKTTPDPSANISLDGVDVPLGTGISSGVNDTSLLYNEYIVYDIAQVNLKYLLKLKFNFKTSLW
testDescription: PARP1 enzymatic assay (homogeneous NAD+ consumption assay)
Type: biochemical
protocolConditions: 5 nM PARP1, 500 nM NAD+, 30 min
readoutKind: IC50 (result in words)

Example results:
CC1CC1C(=O)c1ccc(-c2n[nH]c(=O)c3ccccc23)cc1 (stereo not drawn) [Row745(2)] :: sub‐micromolar
C#CCCNCc1ccc(-c2cc(F)c3c(c2)C(=O)NCC3)c(C)c1 [Row528] :: No inhibition
Cc1cc(COC(=O)c2c(C)ccc3[nH]ncc23)ccc1C(=O)N1CCOCC1 [Row26] :: No inhibition
O=c1[nH]nc(-c2ccc(Br)cc2)c2ccccc12 [Row86 (I), 4‐(4‐bromophenyl)‐2H‐phthalazin‐1‐one] :: sub‐micromolar
Cc1cc(CN)ccc1-c1cc(F)c2c(c1)C(=O)NCC2.Cl [Row528 (I)] :: No inhibition

Could you now look at the following molecule, please?
Q: Observed IC50 (result in words) on full-length human PARP1 (Homo sapiens, UniProt P09874) for CCCC(O)c1ccc(-c2n[nH]c(=O)c3ccccc23)cc1 (stereo not drawn) [Row86] , please.
A: sub‐micromolar

---

studyTarget: full-length human PARP1 (Homo sapiens, UniProt P09874)
Construct: Briefly, full‐length human PARP1 was produced in E. coli Rosetta2 (DE3); made in house; host or cells: E. coli Rosetta2 (DE3)
testDescription: PARP1 enzymatic assay (homogeneous NAD+ consumption assay)
Format: biochemical
protocolConditions: 5 nM PARP1, 500 nM NAD+, 30 min; IC50 above 1 μM measured once
Attribute: IC50
Unit µM implied. Number only.

Cc1ccc(Cn2cc(CCN)c3c(C#N)cccc32)cc1 :: 16

Q: Hi! What's the reported IC50 for Cc1cc2cc(C(=O)OCc3ccc(C(=O)N4CCOCC4)c(C)c3)ccc2c(=O)[nH]1 on full-length human PARP1 (Homo sapiens, UniProt P09874)?
A: 19
